Test system: TYKNU
Experiment: fractional viability relative to vehicle; higher = less growth inhibition
Conditions: 10uM; 72 h; genotype: sgCTRLA1 (non-targeting control)
The full ranking holds about 2,000 compounds; the median of “fractional viability relative to vehicle” is about 0.91, and the lowest 2% start at about 0.045. The list comes from a sample in which the lowest values are over-represented; it also holds close analogues and randomly drawn compounds.
// fractional viability lookup, one value per entry
property_label: fractional viability

* O=S(=O)(N=Cc1c(O)ccc2ccccc12)c1cccs1 | 0.77
* CCN(CC)CCN(Cc1ccc(-c2ccc(C(F)(F)F)cc2)cc1)C(=O)Cn1c(SCc2ccc(F)cc2)nc(=O)c2c1CCC2 | 0.00842
* CC(NC(=O)C(Cc1ccccc1)NC(=O)OCc1ccccc1)C(=O)CF (centres undefined) | 0.606
* CC(=O)Nc1ccccc1 [Acetanilide] | 1.14
* CC(C)(C)C(=O)Nc1ccc2c(c1)C(=O)C(=O)c1ccccc1-2 | 0.0127
* C[C@@H]1COCCN1c1cc(C2([S@](C)(=N)=O)CC2)nc(-c2cc[nH]c3nccc2-3)n1 | 0.0834
* CCOC(=O)[C@H]1O[C@@H]1C(=O)N[C@@H](CC(C)C)C(=O)NCCC(C)C [Aloxistatin] | 0.78
* CC[C@@H]([C@H](C)O)n1ncn(-c2ccc(N3CCN(c4ccc(OC[C@@H]5CO[C@@](Cn6cncn6)(c6ccc(F)cc6F)C5)cc4)CC3)cc2)c1=O [Posaconazole] | 1.05
* CC1=CC(=O)NS(=O)(=O)O1 [Acesulfame Potassium] | 1.17

---

Test system: TYKNU
Assay: fractional viability relative to vehicle; higher = less growth inhibition
Details: 10uM; 72 h; genotype: DNM1L knockout (sgDNM1L #1)
Where a name gives a salt, the structure may show the parent alone. The full ranking holds about 2,000 compounds; the median of “fractional viability relative to vehicle” is about 0.91, and the lowest 2% start at about 0.045. What follows is part of a selection rich in the lowest values, with near analogues and random picks from the rest.
Just a reminder that ties go to f: only fractional viability strictly below 0.6 counts as t.

• O=C(NC[C@H](O)CO)c1ccncc1Nc1ccc(I)cc1F = t
• OCCn1cc(-c2ccc3c(c2)CC/C3=N\O)c(-c2ccncc2)n1 = f
• O=C(NNc1ccccc1)c1ccncc1 = f
• CC1(C)CC[C@]2(NC(=O)C(C)(F)F)CC[C@]3(C)[C@H](C(=O)C=C4[C@@]5(C)C=C(C#N)C(=O)C(C)(C)[C@@H]5CC[C@]43C)[C@@H]2C1 [Omaveloxolone (RTA-408)] = t
• COc1cccc(-c2cc(F)ccc2C2Cc3nc(N)nc(C)c3C(=O)N2)n1 (stereo not drawn) = t
• CN(C)CCOc1ccc(-c2nc(-c3ccncc3)c(-c3ccc4c(c3)CC/C4=N\O)[nH]2)cc1 = t
• Clc1cccc(-c2nnnn2Cc2cccnc2)c1Cl = f
• CCCCCCCc1ccc(CCc2cccc(O)c2C(=O)O)cc1 = f
• Nc1c(CC(=O)O)cccc1C(=O)c1ccc(Br)cc1 [Bromfenac Sodium] = f
• Cn1c2ccccc2c2c3c(c4c5ccccc5n(CCC#N)c4c21)CNC3=O = f
• COc1ccc(-c2cc3c(C)nc(N)nc3n([C@H]3CC[C@H](OCCO)CC3)c2=O)cn1 = t
• O=C(c1ccc(C(=O)N2CCC(N3CCCC3)CC2)c(Nc2ccccc2)c1)N1CCC(N2CCCC2)CC1 = f
• C1=N/C2=N/c3ccc(OCCN4CCCC4)c(c3)COC/C=C/COCc3cccc(c3)C(=C1)N2 [Pacritinib (SB1518)] = t
• NCCCCCNCC12CC3CC(CC(C3)C1)C2 [IEM 1754 dihydrobroMide] = f
• C=C1CC[C@H](O)C/C1=C/C=C1\CCC[C@]2(C)[C@@H]([C@H](C)/C=C/[C@H](C)C(C)C)CC[C@@H]12 [Vitamin D2] = t
• CCCCCCCCc1ccc(CCC(N)(CO)CO)cc1 [Fingolimod (FTY720) HCl] = t

---

Test system: TYKNU
Assay: fractional viability relative to vehicle; higher = less growth inhibition
Conditions: 10uM; 72 h; genotype: DNM1L knockout (sgDNM1L #1)
Counter-ions that a name gives are not always drawn. The full ranking holds about 2,000 compounds; the median of “fractional viability relative to vehicle” is about 0.91, and the lowest 2% start at about 0.045. The full list was thinned out, with the lowest values kept by preference.
Labelling field: enter satisfied if recorded fractional viability is less than 0.3. Enter not satisfied if it equals or exceeds that cut-off.

• CC(C)C[C@H](NC(=O)CNC(=O)c1cc(Cl)ccc1Cl)B(O)O = satisfied
• CCCCc1oc2ccc(NS(C)(=O)=O)cc2c1C(=O)c1ccc(OCCCN(CCCC)CCCC)cc1 [Dronedarone HCl] = satisfied
• CC(C)c1onc(-c2c(Cl)cccc2Cl)c1COc1ccc(/C=C/c2cccc(C(=O)O)c2)c(Cl)c1 = not satisfied
• Cn1c(=O)cc(N2CCC[C@@H](N)C2)n(Cc2ccccc2C#N)c1=O [Alogliptin] = not satisfied
• CC(NC(=O)C(Cc1ccccc1)NC(=O)OCc1ccccc1)C(=O)CF (configuration not stated) = not satisfied
• COC[C@H](NC(=O)c1cnc(C)s1)C(=O)N[C@@H](COC)C(=O)N[C@@H](Cc1ccccc1)C(=O)[C@@]1(C)CO1 [Oprozomib (ONX 0912)] = satisfied
• NC1=N[C@@](c2cccc(-c3cncnc3)c2)(c2ccnc(C(F)F)c2)c2cccc(F)c21 = not satisfied
• COc1ccc(C[C@H](NC(=O)[C@H](C)NC(=O)CN2CCOCC2)C(=O)N[C@@H](Cc2ccccc2)C(=O)[C@@]2(C)CO2)cc1 = satisfied
• COC(=O)[C@H](Cc1ccccc1)NC(=O)[C@@H](N)CC(=O)O [Aspartame] = not satisfied
• Cn1cc(-c2ccc(F)c(C(F)(F)F)c2)nc1C1CCN(c2ncnc3[nH]ncc23)CC1 = not satisfied
• CN(C)CC(=O)Nc1ccc2[nH]c(=O)c3ccccc3c2c1 = not satisfied
• CC(/C=C1\SC(=S)N(CC(=O)O)C1=O)=C\c1ccccc1 [Epalrestat] = not satisfied
• CC(C)C[C@H](NC(=O)[C@H](Cc1ccccc1)NC(=O)c1cnccn1)B(O)O [Bortezomib (PS-341)] = satisfied
• C=C[C@]1(C)C[C@@H](OC(=O)CSC(C)(C)CNC(=O)[C@H](N)C(C)C)[C@]2(C)[C@H](C)CC[C@]3(CCC(=O)[C@H]32)[C@@H](C)[C@@H]1O [Valnemulin HCl] = not satisfied
• O=C(O)c1cc(=O)[nH]c(=O)[nH]1 [Orotic acid (6-Carboxyuracil)] = not satisfied
• OC1(c2ccc(Cl)c(C(F)(F)F)c2)CCN(CCCC(c2ccc(F)cc2)c2ccc(F)cc2)CC1 [Penfluridol] = satisfied
• Fc1ccc2[nH]ccc2c1-c1nc(N2CCOCC2)c2sc(CN3CCN(CC4CC4)CC3)cc2n1 = not satisfied

---

Tested on: TYKNU
Assay: fractional viability relative to vehicle; higher = less growth inhibition
Conditions: 10uM; 72 h; genotype: sgCTRLA1 (non-targeting control)
Whole data set: some 2,000 compounds, median “fractional viability relative to vehicle” near 0.91, cut for the lowest 2% near 0.045. The entries come from a sample that favours the lowest values as a whole.
Quick reference for fractional viability among some compounds
property_label: fractional viability

- CCN1C[C@H](C)n2c(c(O)c3c(=O)n(Cc4ccc(F)c(Cl)c4)nc(C(=O)NC)c32)C1=O: 1.12
- C/C(=N\NC(=S)N1CCC1)c1ccccn1: 0.167
- CC(C)(C)C(=O)C(Oc1ccc(Cl)cc1)n1ccnc1 (stereo not given): 0.924
- CN(CCOc1ccc(NS(C)(=O)=O)cc1)CCc1ccc(NS(C)(=O)=O)cc1 [Dofetilide]: 0.933
- NC(=O)c1cn(Cc2c(F)cccc2F)nn1 [Rufinamide]: 1.04
- O=C(Nc1nc2cccc(-c3ccc(CN4CCS(=O)(=O)CC4)cc3)n2n1)C1CC1: 0.573
- COc1ccc(-c2cnc3c(-c4cccc5ncccc45)cnn3c2)cc1: 1.2
- C/C(=N\NC(=O)c1cccc(S(=O)(=O)N2CCOCC2)c1)c1cc(Cl)ccc1O: 0.136
- NC(=O)C(c1ccccc1)(c1ccccc1)[C@@H]1CCN(CCc2ccc3c(c2)CCO3)C1: 0.953
- Cc1ccc(S(=O)(=O)/C=C/C#N)cc1: 0.01

---

Test system: TYKNU
Experiment: fractional viability relative to vehicle; TYKNU is a high-grade serous ovarian cancer line; higher = less growth inhibition
Details: 2uM; 72 h; genotype: DNM1L knockout (sgDNM1L #1)
Structures can show the parent of a compound that is named as a salt. Whole data set: some 2,000 compounds, median “fractional viability relative to vehicle” near 0.91, cut for the lowest 2% near 0.045. The sample as a whole holds a higher share of the lowest values than the screen did.
Classify by fractional viability. Ranges: zone 1: < 0.7; zone 2: ≥ 0.7 and < 0.9; zone 3: ≥ 0.9

* Cn1cc(-c2ccc(F)c(C(F)(F)F)c2)nc1C1CCN(c2ncnc3[nH]ncc23)CC1 | zone 2
* O=c1ncccn1[C@@H]1O[C@H](CO)[C@@H](O)[C@H]1O | zone 3
* COc1ncc(-c2ccc3nccc(-c4ccnnc4)c3c2)cc1NS(=O)(=O)c1ccc(F)cc1F | zone 1
* Cc1cc(C(O)=C2C(=O)C(=O)N(CCCN3CCOCC3)C2c2ccncc2)ccc1OCc1ccccc1 (centres undefined) | zone 2
* COc1ccc2cc(OCC3(C(=O)O)CN(C(=O)c4ccc(F)cc4)C3)ccc2c1 | zone 2
* O=C(c1ccccc1)c1ccc2nc(NC(=O)c3csc(C4CCN(c5ncnc6ccsc56)CC4)n3)[nH]c2c1 | zone 2
* CCCCCCCCC/C(=C\C1=C(C)C(=O)C(OC)=C(OC)C1=O)C(=O)O | zone 2
* COc1ccc(-c2nc3cc(C4=NNC(=O)CC4C)ccc3[nH]2)cc1 (centres undefined) | zone 3
* CNS(=O)(=O)Nc1nccc(Cc2c(C)c3ccc(Oc4ncccn4)cc3oc2=O)c1F | zone 1
* CC1=CC(=O)NS(=O)(=O)O1 | zone 3
* OC[C@H]1O[C@@H](OCCc2ccc(O)cc2)[C@H](O)[C@@H](O)[C@@H]1O [Salidroside] | zone 3
* CC1(C)CCC2=C(O1)c1ccccc1C(=O)C2=O | zone 1
* COc1ccccc1OCC(O)COC(N)=O (centres undefined) | zone 3
* CC(C)n1nc(-c2ccc3oc(N)nc3c2)c2c(N)ncnc21 | zone 1
* C=C[C@]1(C)C[C@@H](OC(=O)CSC(C)(C)CNC(=O)[C@H](N)C(C)C)[C@]2(C)[C@H](C)CC[C@]3(CCC(=O)[C@H]32)[C@@H](C)[C@@H]1O [Valnemulin HCl] | zone 1
* Clc1cccc(CN=C2Nc3ccccc3NC23CCNCC3)c1 | zone 2
